The molecules listed here are annotated with their inhibition.
Molecular target: 17-beta-hydroxysteroid dehydrogenase type 3 (Homo sapiens) (UniProt P37058)
Sequence (P37058 whole entry): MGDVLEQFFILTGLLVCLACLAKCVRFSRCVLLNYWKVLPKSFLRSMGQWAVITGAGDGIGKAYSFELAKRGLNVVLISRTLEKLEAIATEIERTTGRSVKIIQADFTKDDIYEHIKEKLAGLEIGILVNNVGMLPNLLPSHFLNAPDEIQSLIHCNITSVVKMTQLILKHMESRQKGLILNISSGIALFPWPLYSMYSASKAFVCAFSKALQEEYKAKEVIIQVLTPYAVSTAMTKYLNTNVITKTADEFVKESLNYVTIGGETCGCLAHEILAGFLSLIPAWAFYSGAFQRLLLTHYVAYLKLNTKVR
Assay: Inhibition of 17Beta-HSD3 expressed in homogenized HEK293 cells assessed as transformation of [14C]-4-androstene-3,17-dione into [14C]-testosterone in presence of NADPH at 0.1 uM
Format: cell-based
Express the result in % but write the number alone.

1. CN1CCN(C[C@@]2(O)CC[C@@]3(C)[C@@H](CC[C@@H]4[C@@H]3CC[C@]3(C)C(=O)CC[C@@H]43)C2)CC1; 0
2. C[C@]12CC[C@](O)(CN3CCN(Cc4cccc(SC(F)(F)F)c4)CC3)C[C@@H]1CC[C@@H]1[C@@H]2CC[C@]2(C)C(=O)CC[C@@H]12; 91
3. CCN(CCN1C[C@]2(CC[C@@]3(C)[C@@H](CC[C@@H]4[C@@H]3CC[C@]3(C)C(=O)CC[C@@H]43)C2)OC1=O)C1CCCCC1; 21

API: the following record is the query input.
So, `C[C@]12CC[C@](O)(CN3CCN(C(=O)C4CCCCC4)CC3)C[C@@H]1CC[C@@H]1[C@@H]2CC[C@]2(C)C(=O)CC[C@@H]12` ? Its inhibition was 75
